Field: z-score. Provide a value for each of the compounds that follow.
# assayInfo: basal CRE-LacZ reporter activity in PC12 – cell-based, unstimulated, primary screen (AID 1145)
# recordedConditions: no forskolin, luminescence, 4.5 h, higher = more signal, called active from +8 up or from −8 down
Give bare numbers.

compound | z-score
CC(C)C[C@@H]1NC(=O)[C@@H]2C[C@H](C(=O)NCc3ccc(F)cc3)[C@H](c3ccc(O)cc3)N2C1=O | -0.26
CCCC=C(CCC)[C@@H](NC(=O)Cc1ccccc1)c1ccc(C(=O)OC)cc1 | 0.0041
C=C(C)[C@@H]1CC=C(C(O)C2C=CC3C(=O)N(C4CCCCC4)C(=O)C3N2Nc2ccc(OC)cc2)CC1 (some centres undefined) | 0.369
COCCOC(=O)N1C(=O)[C@@]2(c3cc(C#CCNC(N)=O)ccc31)[C@H](C(=O)N1CCCCCCC1)[C@H]1C(=O)O[C@H](c3ccccc3)[C@H](c3ccccc3)N1[C@@H]2c1ccc(OCCO)cc1 | 0.22
CN(C)CCCN1C(=O)[C@@]2(Cc3ccccc31)c1ccccc1C(=O)N(Cc1ccccc1)[C@H]2c1ccc(CO)cc1 | -0.491
C[N+](C)(C)CCCC[C@@H]1NC(=O)[C@H]2C[C@@H](C(=O)NCCCCCCN)[C@@H](c3cccc(OCCO)c3)N2C1=O | -0.809
C[N+](C)(C)CCCCNC(=O)[C@H]1C[C@H]2C(=O)NCC(=O)N2[C@H]1c1ccc(O)cc1 | -0.398
CCCCCCC#C[Si](O[C@H](c1ccccc1)c1cn(Cc2cccc(Cl)c2)nn1)(C(C)C)C(C)C | -1.12

Working through the 2 compounds below one at a time, give z-score for each.
1. C=C(/C(=C/C[C@@H](OC(C)=O)c1ccccc1OCCO)c1cnc2ccccc2c1)C(C)C
2. C=CCN1C(=O)[C@@]2(O[C@@H](CCn3cc([C@H](O)c4ccccc4)nn3)[C@H]([Si](C)(C)c3ccc(OC)cc3)[C@H]2C)c2cc(NC(=O)c3ccc(OC)cc3)ccc21

RESULT:
10.8
3.97

----------
I'd appreciate it if you could supply composite z-score values for the items below.
# systemUnderTest: Carbonic anhydrase 2 (Homo sapiens)
# assayInfo: compounds binding carbonic anhydrase 2 – biochemical, small-molecule microarray, Alexa647-labelled CAII, profiling panel (AID 1122)
# recordedConditions: CAII-A647 binding fluorescence, higher = more signal
Numbers only.

compound | composite z-score
CC(C)C[C@@H]1NC(=O)[C@@H]2C[C@H](C(=O)NCc3ccc(F)cc3)[C@H](c3ccc(O)cc3)N2C1=O | 0.47
COC(=O)[C@@]1(Cc2ccc(OC)cc2)[C@H]2c3cc(C(=O)N(C)C)n(Cc4cc(F)c(F)c(F)c4)c3C[C@H]2CN1C(=O)c1ccccc1 | 0.767
CO[C@H]1O[C@H](CO)[C@@H](OC(=O)Nc2ccc(C(F)(F)F)cc2)[C@H](OC(=O)Nc2ccccc2)[C@H]1OC(=O)Nc1ccccc1 | 0.565

Quick request: composite z-score for each listed item, please.
1. O=C1O[C@H](c2ccccc2)[C@H](c2ccccc2)N2[C@H]1[C@@H](C(=O)N1CCN(c3ncccn3)CC1)[C@]1(C(=O)Nc3ccc(C#CCCO)cc31)[C@H]2c1ccc(OCCO)cc1
2. CC(C)C[C@@H]1NC(=O)[C@@H]2C[C@H](C(=O)NCCCC[N+](C)(C)C)[C@H](c3cccc(OCCO)c3)N2C1=O
3. COC(=O)C(CC#Cc1ccc2c(c1)[C@]1(C(=O)N2)[C@H](C(=O)N2CCc3cc(OC)c(OC)cc3C2)[C@H]2C(=O)O[C@H](c3ccccc3)[C@H](c3ccccc3)N2[C@@H]1c1ccc(OCCO)cc1)C(=O)OC
4. Cc1ccc(F)cc1S(=O)(=O)N[C@@H]1CCN(C(=O)c2ccc(OC(C)C)cc2)C1
5. COC(=O)[C@@]1(Cc2ccc(OC)cc2)[C@H]2c3cc(C(=O)N(C)C)n(CCF)c3C[C@H]2CN1C(=O)c1ccccc1
6. CC(C)C[C@@H]1NC(=O)[C@@]23C(=O)N[C@@H](Cc4ccccc4)C2[C@H](C)[C@@]2(C)O[C@H]2C3/C=C/C/C=C\CNC(=O)[C@@H]2CCCN2C1=O (stereo not given in full)
7. NC(=O)[C@@H]1[C@H]2C(=O)O[C@H](c3ccccc3)[C@H](c3ccccc3)N2[C@H](c2ccccc2OCCO)[C@@]12C(=O)Nc1ccc(C#CCCO)cc12

RESULT:
1: 0.296; 2: 0.479; 3: 0.413; 4: -0.0494; 5: 0.793; 6: 0.391; 7: 0.71

Record composite z-score per entry; entries follow.
1. O=C1c2ccccc2[C@](Cc2ccccc2I)(C(=O)NC2CC2)[C@H](c2ccc(CO)cc2)N1Cc1ccccc1Cl
2. O=C1O[C@@H](c2ccccc2)[C@@H](c2ccccc2)N2[C@@H](c3ccc(O)cc3)[C@]3(C(=O)Nc4ccc(C#CC5(O)CCCCCC5)cc43)[C@@H](C(=O)N3CCN(c4ncccn4)CC3)[C@H]12
3. CCCNC(=O)[C@@]1(Sc2ccc(C)cc2)CC(=O)N(Cc2ccccc2)[C@@H]1c1ccc(CO)cc1I
4. COCCOC(=O)N1C(=O)[C@@]2(c3ccccc31)[C@H](c1ccccc1OCCO)N1[C@H](c3ccccc3)[C@H](c3ccccc3)OC(=O)[C@H]1[C@@H]2C(=O)N1CCc2cc(OC)c(OC)cc2C1
5. COC(=O)c1ccc(OC)c(/C=C\CC(CCc2ccccc2)OC(C)=O)c1 (stereo not given)

RESULT:
1: 0.574; 2: 0.604; 3: 0.405; 4: 0.335; 5: 0.557

----------
# assayInfo: resazurin metabolic signal in A549 cells – cell-based, resazurin fluorescence, 24 h, PK04 Diversity Set, profiling panel (AID 1171); further: test concentration not given here
# recordedConditions: A549 viability, higher = more signal, called active from +8 up or from −8 down
Active and inactive are the calls of the source.
What z-score was measured for each of the following?

molecule | z-score
O=C1OCC=C[C@H]2OC34C=CCN(CCN5CCOCC5)C(=O)[C@H]3N(CCCCCO)C(=O)[C@@H]4[C@@H]12 (some centres undefined) | -0.536 (inactive)
CCOC(=O)C[C@H]1[C@H](OC(=O)Cc2ccc3c(c2)OCO3)[C@@H](NC(=O)c2ccccc2)c2cc(OCCCO)ccc2N1C(=O)c1ccccc1 | 0.323 (inactive)
COc1cccc(C[C@H]2C[C@@H](CO[Si](C(C)C)(C(C)C)C(C)C)N3C(=O)[C@]4(C(C)=O)O[C@]23[C@H]2C(=O)N(C)C(=O)[C@H]24)c1 | -1.41 (inactive)

Now for the molecule whose z-score we want.
QUERY: # lookup: z-score of CC1C=C(CCCO)C=C(C(=O)OCCS(C)(=O)=O)C(C(=O)OCCS(C)(=O)=O)=CN1Cc1cccc(OC(F)(F)F)c1 (centres undefined)
RESULT: -0.0746 (inactive)

----------
# assayInfo: basal CRE-LacZ reporter activity in PC12 – cell-based, unstimulated, primary screen (AID 1145)
# recordedConditions: no forskolin, luminescence, 4.5 h, called active from +8 up or from −8 down
Activity calls are given as the source filed them.
Lab note: assign the record to one of TRUE (active), FALSE (inactive)

QUERY: Recorded call for "COC(=O)[C@@]1(Cc2ccccc2N=[N+]=[N-])N=C(c2ccc(OCCCO)cc2)O[C@H]1c1ccccc1" ?
RESULT: FALSE

QUERY: Returns: the outcome recorded for "CC(=O)NCCCC[C@@H]1NC(=O)[C@H]2C[C@@H](C(=O)NCCCCCN)[C@@H](c3cccc(OCCO)c3)N2C1=O" in this assay.
RESULT: FALSE

QUERY: Short answer needed: outcome of this test for "CCCN1C(=O)[C@@H]2Cc3c([nH]c4ccccc34)[C@@H](c3cccc(O)c3)N2C1=O" ?
RESULT: FALSE

QUERY: Record request — test call for "COc1ccc([Si](C)(C)[C@@H]2[C@@H](CC(=O)N(CCO)Cc3ccccc3)O[C@]3(C(=O)N(C)c4c(Br)cc(C)cc43)[C@H]2C)cc1"
RESULT: TRUE

----------
# assayInfo: FRG1 expression reporter modulators in myotubes – cell-based, C2C12 myotubes, firefly/Renilla luciferase, luminescence, FRG1 inhibition for FSHD, primary screen (AID 1084)
# recordedConditions: FRG1 promoter luciferase, higher = more signal, called active from +8 up or from −8 down
Please use 1.0 whenever z-score is not below -0.3, and 0.0 whenever it is.

Worked examples, 5 compounds total:
compound | class
CCOC(=O)C1=CCC(c2cccc(Cl)c2)O1 (stereo not drawn) | 1.0
COC(=O)[C@@]1(Cc2ccccc2)[C@H]2c3cc(C(=O)N(C)C)n(Cc4ccc(O)c(OC)c4)c3C[C@H]2CN1C(=O)c1ccccc1 | 1.0
CCCC=C(CCC)[C@@H](NC(=O)Cc1ccccc1)c1ccc(C(=O)OC)cc1 | 1.0
COC(=O)[C@@]1(Cc2ccccc2)[C@H]2c3cc(C(=O)N4CCCC4)n(Cc4ccccc4)c3C[C@H]2CN1C(=O)c1ccccc1 | 0.0
O=C1c2ccccc2[C@](Cc2ccccc2I)(C(=O)NCC(F)(F)F)[C@H](c2ccc(CO)cc2)N1Cc1ccccc1 | 0.0

QUERY: Check if z-score >= -0.3 (inclusive). Item: "[N-]=[N+]=Nc1ccccc1C[C@]1(C(=O)NCCN2CCOCC2)N=C(c2ccc(OCCCO)cc2)O[C@H]1c1ccccc1N=[N+]=[N-]"
RESULT: 0.0

QUERY: Form field: z-score at least -0.3? Entry: CC(C)CCC[C@@H](C)[C@H]1CC[C@@]2(C)C3=C(CC[C@]12C)[C@@]1(C)CC[C@H](OC(=O)c2ccc(N)cc2)C(C)(C)C1CC3 (stereo partly drawn)
RESULT: 0.0

QUERY: Is the recorded value of z-score equal to or greater than -0.3 for this compound? "CN(C)CCCCCCNC(=O)[C@@H]1C[C@@H]2C(=O)NCC(=O)N2[C@@H]1c1ccc(O)cc1"
RESULT: 1.0

Reference for the values: PubChem BioAssay
